- Test target: T1, WT hHsp70 (human HspA1A), full-length (residues 1–641) (human, UniProt P0DMV8 1-641)
- T1 construct: The deglutathionylated sample (glutathionylated, then 10 mM DTT) carries no modification and is written as this molecule; the label in the row tells which sample it was; also called HspA1A/B; untreated control (-C); source: monomeric peak collected
- T1 sequence (P0DMV8 whole entry, the tested form may be a part): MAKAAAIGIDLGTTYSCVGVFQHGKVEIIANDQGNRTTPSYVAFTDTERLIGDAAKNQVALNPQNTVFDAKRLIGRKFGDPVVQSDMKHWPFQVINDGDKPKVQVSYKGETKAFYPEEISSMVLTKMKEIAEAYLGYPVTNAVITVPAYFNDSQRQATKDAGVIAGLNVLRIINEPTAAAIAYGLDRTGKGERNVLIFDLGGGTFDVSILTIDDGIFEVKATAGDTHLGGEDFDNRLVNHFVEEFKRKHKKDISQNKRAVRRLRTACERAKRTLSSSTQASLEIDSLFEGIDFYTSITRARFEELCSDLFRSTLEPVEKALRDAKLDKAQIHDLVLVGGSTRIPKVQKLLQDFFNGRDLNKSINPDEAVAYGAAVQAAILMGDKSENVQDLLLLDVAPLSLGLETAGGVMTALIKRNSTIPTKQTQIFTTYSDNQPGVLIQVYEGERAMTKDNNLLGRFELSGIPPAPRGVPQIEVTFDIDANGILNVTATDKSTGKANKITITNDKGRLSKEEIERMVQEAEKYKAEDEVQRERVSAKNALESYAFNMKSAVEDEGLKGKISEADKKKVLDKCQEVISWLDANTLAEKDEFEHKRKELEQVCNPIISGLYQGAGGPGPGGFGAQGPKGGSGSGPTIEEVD
- Assay overview: fluorescence polarisation; steady state; 20 nM FAR with increasing hHsp70 or mutant; apo (no nucleotide); Buffer B; RT, 60 min; single site binding model
- Test settings: both partners purified
Ends that are not written are not given here. * marks the point of attachment. FITC = O=C1OC2(c3ccc(O)cc3Oc3cc(O)ccc32)c2ccc(NC(=S)*)cc21
Outcome measure: pKd
For clarity, pKd is expressed as the negative log10 of concentration in mol/L.

# query: pKd of entry {FITC}-ALLLSAPRR (fluorescently labeled peptide substrate) [FITC-labeled ALLLSAPRR (FAR) peptide]
5.95

Hey, just so you know, these numbers are from paper PMC7294093.
